Values were extracted from paper PMC10786891.

The following binders are listed with their measured pKd values.
- TEST_TARGET: T1, EsCas13d, nuclease-dead (Eubacterium siraeum, UniProt B0MS50, R295A;H300A;R849A;H854A)
- T1 sequence: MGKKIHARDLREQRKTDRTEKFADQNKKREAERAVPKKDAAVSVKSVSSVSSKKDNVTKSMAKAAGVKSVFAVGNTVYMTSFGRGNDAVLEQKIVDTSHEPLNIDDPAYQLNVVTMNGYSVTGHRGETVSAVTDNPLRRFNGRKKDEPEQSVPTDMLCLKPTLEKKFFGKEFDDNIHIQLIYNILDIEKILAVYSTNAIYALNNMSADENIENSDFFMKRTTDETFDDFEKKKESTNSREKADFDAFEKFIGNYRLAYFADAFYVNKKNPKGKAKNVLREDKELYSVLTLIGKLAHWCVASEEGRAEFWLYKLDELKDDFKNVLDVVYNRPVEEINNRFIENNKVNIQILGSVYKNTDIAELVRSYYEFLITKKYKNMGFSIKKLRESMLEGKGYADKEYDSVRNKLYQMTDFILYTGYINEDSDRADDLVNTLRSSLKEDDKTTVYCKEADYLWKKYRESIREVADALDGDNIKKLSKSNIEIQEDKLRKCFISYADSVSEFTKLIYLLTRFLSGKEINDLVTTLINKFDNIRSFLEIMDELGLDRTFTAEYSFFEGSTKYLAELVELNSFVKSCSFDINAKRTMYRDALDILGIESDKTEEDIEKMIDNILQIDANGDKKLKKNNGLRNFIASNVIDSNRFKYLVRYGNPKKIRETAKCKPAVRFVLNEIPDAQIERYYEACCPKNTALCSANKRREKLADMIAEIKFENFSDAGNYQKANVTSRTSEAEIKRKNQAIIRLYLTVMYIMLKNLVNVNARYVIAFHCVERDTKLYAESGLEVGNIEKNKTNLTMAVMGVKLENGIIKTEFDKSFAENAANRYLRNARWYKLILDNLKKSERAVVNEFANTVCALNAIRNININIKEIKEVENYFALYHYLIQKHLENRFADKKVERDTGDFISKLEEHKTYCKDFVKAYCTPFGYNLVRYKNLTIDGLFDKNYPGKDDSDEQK
- EXPERIMENTAL_DETAILS: crRNA (strand 1, pre-loaded); Mg2+; 40 mM Tris-HCl pH 7.5, 150 mM NaCl, 6 mM MgCl2, 1 mM DTT, 0.1% Tween-20, 0.2 mg/ml BSA; 25 C; 10 min per concentration, then washed
- SETUP_CONDITIONS: tags: His6-TwinStrep-SUMO cleaved; N-terminal SNAP kept (SNAP-Surface 488); label: 3' end held by stalled T7 RNA polymerase
pKd: −log10 of the molar value.

| BINDER | pKd |
| --- | --- |
| target 1 MT 5'PFS GUU 3'PFS CUA (mixed) RNA 1: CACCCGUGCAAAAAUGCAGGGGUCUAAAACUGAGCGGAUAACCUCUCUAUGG RNA 2: GGGAAUGGAUCCACAUCUACGAAUUCGUUCCAUAGAGAGGUUAUCCGCUCACUAAGAUCGGAAGAGCACACGU | 7.75 |
| target 1 G5C,C7U (mixed) RNA 1: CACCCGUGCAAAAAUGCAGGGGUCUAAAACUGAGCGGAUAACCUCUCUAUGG RNA 2: GGGAAUGGAUCCACAUCUACGAAUUCGUACCAUAGAGAGGUUAUUCCCUCACCGAGAUCGGAAGAGCACACGU | 7.48 |
| target 1 MT 5'PFS GGC 3'PFS AUA (mixed) RNA 1: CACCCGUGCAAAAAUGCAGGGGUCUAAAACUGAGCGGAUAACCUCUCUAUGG RNA 2: GGGAAUGGAUCCACAUCUACGAAUUCGGCCCAUAGAGAGGUUAUCCGCUCAAUAAGAUCGGAAGAGCACACGU | 7.78 |
| target 1 MT 5'PFS GGG 3'PFS GGG (mixed) RNA 1: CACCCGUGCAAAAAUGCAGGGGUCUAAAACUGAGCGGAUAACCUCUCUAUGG RNA 2: GGGAAUGGAUCCACAUCUACGAAUUCGGGCCAUAGAGAGGUUAUCCGCUCAGGGAGAUCGGAAGAGCACACGU | 7.18 |
